Source: patent US11111237B2

- MEASUREMENT TARGET: PRMT5-MEP50 enzyme complex (Homo sapiens (Human), UniProt O14744)
- Sequence (O14744 2-637): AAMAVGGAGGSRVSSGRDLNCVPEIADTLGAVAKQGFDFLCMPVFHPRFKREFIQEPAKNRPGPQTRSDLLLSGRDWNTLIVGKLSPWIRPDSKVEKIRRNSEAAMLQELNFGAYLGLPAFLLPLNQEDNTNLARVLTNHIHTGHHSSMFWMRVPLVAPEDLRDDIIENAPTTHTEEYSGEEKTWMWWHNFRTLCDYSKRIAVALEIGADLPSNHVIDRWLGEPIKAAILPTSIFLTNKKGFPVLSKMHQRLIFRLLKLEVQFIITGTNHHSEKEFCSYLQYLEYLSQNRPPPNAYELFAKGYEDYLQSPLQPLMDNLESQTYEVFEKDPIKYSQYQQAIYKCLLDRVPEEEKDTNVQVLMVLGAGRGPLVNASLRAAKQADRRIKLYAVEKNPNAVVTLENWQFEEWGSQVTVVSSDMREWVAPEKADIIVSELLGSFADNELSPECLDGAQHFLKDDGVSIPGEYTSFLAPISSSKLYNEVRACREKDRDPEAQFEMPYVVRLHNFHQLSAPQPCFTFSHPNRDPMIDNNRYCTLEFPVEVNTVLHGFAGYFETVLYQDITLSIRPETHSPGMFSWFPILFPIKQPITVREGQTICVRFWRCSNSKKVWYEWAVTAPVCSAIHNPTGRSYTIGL
- Sequence (Q9BQA1 2-342 partner): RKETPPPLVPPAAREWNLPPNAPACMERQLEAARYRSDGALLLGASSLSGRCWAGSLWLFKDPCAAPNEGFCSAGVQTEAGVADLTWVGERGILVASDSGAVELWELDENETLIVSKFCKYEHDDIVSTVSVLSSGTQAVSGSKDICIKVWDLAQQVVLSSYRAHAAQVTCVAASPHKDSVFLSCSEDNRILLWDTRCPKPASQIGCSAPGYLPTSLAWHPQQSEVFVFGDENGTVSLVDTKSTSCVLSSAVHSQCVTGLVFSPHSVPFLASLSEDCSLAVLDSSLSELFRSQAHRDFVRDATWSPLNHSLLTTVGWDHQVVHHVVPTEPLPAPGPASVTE
- EXPERIMENT DESCRIPTION: PRMT5 enzyme activity in vitro assay (methylation of histone H4R3, ELISA absorbance at 450 nm)
- MEASUREMENT SETUP: SAM, histone H4 peptide, room temperature 2 hours, 8 points from 10 μM to 0.128 nM
Counter-ions that a name gives are not always drawn.
Entries and their IC50 values follow.

# COMPOUND, MEASUREMENT TARGET, IC50
data = [
    ("CC(C)(C)OC(=O)N1CC=C(c2ccc3c(c2)OCCN(C[C@H](O)CN2CCc4ccccc4C2)C3=O)CC1", "PRMT5-MEP50 enzyme complex (Homo sapiens (Human), UniProt O14744)", "100 to 1000 nM"),
]

*Q* What does the data say about its IC50? Entry: O=C1c2ccc(-c3cccnc3)cc2OCCN1C[C@H](O)CN1CCc2ccccc2C1
*A* 1 to 100 nM

*Q* Name the reported IC50 value associated with the compound CN1CCC(Oc2ccc3c(c2)N(C)CCN(C[C@H](O)CN2CCc4ccccc4C2)C3=O)C1 (stereo partly shown)
*A* 100 to 1000 nM

*Q* I would be grateful if you could share the reported IC50 for O=C1c2ccc(Br)cc2OCCN1C[C@H](O)CN1CCc2ccccc2C1 .
*A* 1 to 100 nM

*Q* Please look up its IC50: CCN1CCC(Oc2ccc3c(c2)OC(C)(C)CN(C[C@H](O)CN2CCc4ccccc4C2)C3=O)CC1
*A* 100 to 1000 nM

*Q* Form field: reported IC50 of CC1CN(C[C@H](O)CN2CCc3ccccc3C2)C(=O)c2ccc(OC3CCNCC3)cc2O1 (stereo partly shown) [Example 140, di hydrochloride]
*A* 100 to 1000 nM

*Q* Form field: reported IC50 of C[C@@H]1CN(C[C@H](O)CN2CCc3ccccc3C2)C(=O)c2ccc(O[C@H]3CCN(C)C3)cc2O1
*A* 100 to 1000 nM

*Q* What value of IC50 has been reported for the following compound? CC1(C)CN(C[C@H](O)CN2CCc3ccccc3C2)C(=O)c2ccc(OC3CN(C=O)C3)cc2O1
*A* 1 to 100 nM

*Q* Report IC50 for CC(C)Cc1ccc2c(c1)OCCN(C[C@H](O)CN1CCc3ccccc3C1)C2=O please.
*A* 1 to 100 nM
